Target: T1, Human Claudin-18.2 protein (human, UniProt P56856-2 1-261, limits assumed)
T1 construct: Soluble analyte injected over captured antibodies in SPR
Assay: SPR (Biacore 8K), antibody captured on Protein A, Claudin-18.2 protein as analyte
METRIC_NAME: Kd (nM)
Number only, in nM; omit the unit.

5-mIgG2aFc (Fc fusion, Fusion antibody anti-Claudin18.2 VHH-mIgG2aFc; also called 5-mIgG Fc; 5-mlgG2a Fc; not shown: mouse IgG2a Fc (mIgG2aFc)) QVQLVESGGGLVQTGGSLRLSCAASDSTFSSYIMGWFRQAPGKEREFVAGITWSGGIKDYADSVKGRFTIARDNAKNTVYLQMNSLKPEDAAIYYCAANAIQLTRRSGDYAYWGQGTQVTVSS: 3.02
2-mIgG2aFc (Fc fusion, Fusion antibody anti-Claudin18.2 VHH-mIgG2aFc; also called 2-mIgG Fc; 2-mlgG2a Fc; not shown: mouse IgG2a Fc (mIgG2aFc)) EVQLVESGGGLVQPGGSLRLSCAASGNILSINYMGWYRQAPGKERELVATITRGGSTNYQGNLKGRFIISGDNTKDTVYLQMNNLQPEDTAVYYCYFRINFGILGGLRDYWGQGTQVTVSS: 1.1
5H2-mIgG2a Fc (Fc fusion, also called 5H2-mIgG Fc; 5H2-mlgG2a Fc; not shown: mouse IgG2a Fc) QVQLVESGGGLVQPGGSLRLSCAASDSTFSSYIMGWFRQAPGKGLEFVAGITWSGGIKDYADSVKGRFTIARDNSKNTLYLQMNSLRAEDAAVYYCAANAIQLTRRSGDYAYWGQGTLVTVSS: 3.32

// switching to the query binder
According to the records, this binder 5H1-mIgG Fc (Fc fusion, Subclass printed only as mIgG Fc for this one; also called 5H1-mlgG Fc; H1-mlgG Fc; not shown: mouse IgG Fc (printed mIgG Fc)) QVQLVESGGGLVQTGGSLRLSCAASDSTFSSYIMGWVRQAPGKGLEWVAGITWSGGIKDYADSVKGRFTIARDNAKNTVYLQMNSLKPEDAAIYYCAANAIQLTRRSGDYAYWGQGTQVTVSS displays Kd of 7.21
